I'd appreciate it if you could supply Percent Effect values for the items below.
system tested: Aspartate--tRNA(Asp/Asn) ligase (Mycobacterium tuberculosis (strain ATCC 25618 / H37Rv)) (UniProt P9WFW3); further: in the data most compounds retested in dose-response had high values
Sequence (P9WFW3 whole entry): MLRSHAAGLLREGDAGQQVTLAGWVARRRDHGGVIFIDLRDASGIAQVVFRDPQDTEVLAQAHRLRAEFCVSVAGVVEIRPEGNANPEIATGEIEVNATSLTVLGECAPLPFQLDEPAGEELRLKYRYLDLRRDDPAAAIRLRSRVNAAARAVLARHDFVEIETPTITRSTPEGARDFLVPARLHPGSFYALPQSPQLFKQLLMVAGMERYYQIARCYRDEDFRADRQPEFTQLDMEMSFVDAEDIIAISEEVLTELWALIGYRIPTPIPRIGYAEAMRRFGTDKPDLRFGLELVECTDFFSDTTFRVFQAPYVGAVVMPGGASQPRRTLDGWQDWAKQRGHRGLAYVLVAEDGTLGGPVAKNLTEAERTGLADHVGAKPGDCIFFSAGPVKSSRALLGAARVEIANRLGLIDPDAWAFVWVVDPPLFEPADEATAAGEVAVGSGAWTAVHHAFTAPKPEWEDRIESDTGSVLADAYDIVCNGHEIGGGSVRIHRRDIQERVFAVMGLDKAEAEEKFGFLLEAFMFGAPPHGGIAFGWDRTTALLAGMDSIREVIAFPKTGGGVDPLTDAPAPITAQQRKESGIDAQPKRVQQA
protocol summary: Assay for Asp RNA synthetase-1 from Mycobacterium tuberculosis
Assay type: functional
Parameters: scale not given: direction of the effect not stated beside the values
test context: 30 µM
State just the number; it will be interpreted in %.

Sample Cc1cnn(CC2CN(Cc3nnc(-c4occc4C)o3)CCO2)c1 (stereo unspecified) ; Percent Effect observed: 2.04

Sample CC(C)(C)C(=O)NCCC(=O)NS(=O)(=O)c1ccc2c(c1)OCCO2 ; Percent Effect observed: -10.1

Sample CN(C)C(=O)NC1COC2(CCN(Cc3ccccc3)CC2)C1 (stereo unspecified) ; Percent Effect observed: -3.84

Sample COCCN1CCC(CNC(=O)c2cc(C)cc(C)c2)C1 (stereo unspecified) ; Percent Effect observed: -2.92

Sample c1cnnc(N2CCCC(NCc3nnc(-c4ccco4)o3)C2)c1 (stereo unspecified) ; Percent Effect observed: -0.7

Sample O=C(c1ccc[nH]1)N1C[C@H]2CC[C@@H]1CN(c1ncccn1)C2 ; Percent Effect observed: -4.31

Sample O=C(NCc1cccs1)C1CN(C(=O)c2cccs2)CC12CCOCC2 (stereo unspecified) ; Percent Effect observed: 6.61

Sample CC(C(=O)Nc1ccc(N2CCCC2)nc1)n1cncn1 (stereo unspecified) ; Percent Effect observed: 0.459

Sample c1cnc(N2C[C@H]3CCN(c4cccnc4)C[C@H]3C2)nc1 ; Percent Effect observed: -2.01

Sample CSc1ccccc1C(C(=O)O)N1CCN(Cc2ccccn2)CC1 (stereo unspecified) ; Percent Effect observed: -1.38

Sample CCOCC1CN(C)Cc2cnn(CC3CCCC3)c21 (stereo unspecified) ; Percent Effect observed: -2.58

* * *

system tested: AMP-activated protein kinase, AMPK (Homo sapiens) (UniProt P54646+O43741+P54619+Q9UGJ0+Q9Y478+Q13131+Q9UGI9)
protocol summary: AMP-dependent Kinase enzyme assay. An in vitro enzyme assay that detects ADP turnover that is directly proportional to AMPK activity. This uses naive AMPK that is activated during the assay with MK-8722
Type: functional
Parameters: scale not given: direction of the effect not stated beside the values
test context: 30 µM
I'd appreciate it if you could supply Percent Effect values for the items below.
State just the number; it will be interpreted in %.

Sample Cc1ccc(N2CCO[C@H]3CN(Cc4ccncc4)C[C@H]32)nn1 ; Percent Effect observed: 3.63

Sample Cc1cccc(CN2C[C@H](NS(C)(=O)=O)[C@@H]3OCCC[C@@H]32)n1 ; Percent Effect observed: 9.72

Sample CCN1CCC(c2cncc(N(C)C)n2)CC1 ; Percent Effect observed: 1.31

Sample CCn1cc(CN2CCCN(C(=O)Cc3cccs3)CC2)cn1 ; Percent Effect observed: -10.6

Sample CC(C)N1CCc2c(CN(C)Cc3ccco3)cncc2C1 ; Percent Effect observed: 0.165

Sample CC(C)(C)c1cc(=O)[nH]c(C2(N)CCCCC2)n1 ; Percent Effect observed: 2.04

Sample CCOCC(O)CN1CCN(C(=O)Cc2ccc3c(c2)CCO3)CC1 (stereo not drawn) ; Percent Effect observed: 2.16

Sample CCc1nc(CNC(C)Cn2cccn2)cs1 (stereo not drawn) ; Percent Effect observed: -19.1

Sample O=C([C@H]1C[C@H]2OCC[C@H]2N(Cc2cccnc2)C1)N1CCCO1 ; Percent Effect observed: 3.09

Sample c1ccc(CO[C@H]2CO[C@@]3(CCN(Cc4ccoc4)C3)C2)nc1 ; Percent Effect observed: 3.34

Sample CC(Cc1c(F)cccc1F)NC(=O)Nc1cnn(CC(N)=O)c1 (stereo not drawn) ; Percent Effect observed: -1.23

Sample O=C(CN1CCN(C(=O)Cc2ccc3c(c2)OCCO3)CC1)NC1CC1 ; Percent Effect observed: 0.741

Sample CC(C)=CCN1C[C@H]2CC[C@@H]1CN(C(=O)c1c[nH]c(=O)c(Cl)c1)C2 ; Percent Effect observed: 2.02

Sample O=C(N[C@H]1CN[C@H]2CCCO[C@H]21)c1cccnc1 ; Percent Effect observed: -3.57

Sample CCN(CCc1ccccc1)Cn1nc(C)c2c(C)onc2c1=O ; Percent Effect observed: -13.6

Sample CCN(CC)C(=O)c1ccc(NC(=O)CNc2ccc(F)cc2Cl)cc1 ; Percent Effect observed: 5.61

Sample Cc1n[nH]c2c1C(c1ccsc1)SCC(=O)N2 (stereo not drawn) ; Percent Effect observed: 7.18

Sample CC(C)CN1C[C@H]2C[C@H](C(=O)Nc3cccnc3)[C@@H](C1)O2 ; Percent Effect observed: 7.32

Sample Cc1[nH]c(=O)[nH]c(=O)c1CC(=O)N1CCCN(CC2CC2)C(C(C)C)C1 (stereo not drawn) ; Percent Effect observed: 3.13

Sample CCOCC(O)CN1CCN(C(=O)Cc2ccc(C)nc2)CC1 (stereo not drawn) ; Percent Effect observed: 1.93

Sample O=C(C1CC(=O)N(c2ccccc2Br)C1)N1CCC2(CC1)OCCO2 (stereo not drawn) ; Percent Effect observed: -5.79

Sample c1cnc(NC[C@@H]2CCC[C@@H]3CN(Cc4cc[nH]n4)C[C@@H]32)nc1 ; Percent Effect observed: -5.7

Sample c1cc(CO[C@@H]2CC[C@H]3[C@H]2OCCN3Cc2ccoc2)ccn1 ; Percent Effect observed: 9.36

* * *

system tested: Aspartate--tRNA(Asp/Asn) ligase (Mycobacterium tuberculosis (strain ATCC 25618 / H37Rv)) (UniProt P9WFW3); further: in the data most compounds retested in dose-response had high values
protocol summary: Assay for Asp RNA synthetase-1 from Mycobacterium tuberculosis
Type: functional
Parameters: scale not given: direction of the effect not stated beside the values
test context: 30 µM
measure name: Percent Effect (%)
State just the number; it will be interpreted in %.

Sample Cc1ncc(CN(C)CC2CCCN2c2cccnn2)s1 (centres undefined) ; Percent Effect observed: 3.27

Sample Cc1cc(C)cc(NS(=O)(=O)c2cc3c(c(C(=O)O)c2)OCCO3)c1 ; Percent Effect observed: 3.19

Sample CCN(c1ccc(C(=O)N2CCCC(C)C2)cc1)S(=O)(=O)CC (centres undefined) ; Percent Effect observed: -3.34

Sample CCOc1ccc(Cl)c(C(=O)N2CCN(c3cnccn3)CC2)n1 ; Percent Effect observed: -1.79

Sample Cn1cc(C2CC(=O)NC23CCN(CC2CC2)CC3)cn1 (centres undefined) ; Percent Effect observed: -4.05

Sample CN1CCOC(CNC(=O)CCCOCCc2ccccc2)C1 (centres undefined) ; Percent Effect observed: -3.72

Sample Cc1ccc(OC2(C(=O)O)CCN(C(=O)c3ccc(F)cc3)CC2)cn1 ; Percent Effect observed: -4.69

Sample O=C(CN1CCOC(Cn2cccn2)C1)NCCc1ccc(F)cc1 (centres undefined) ; Percent Effect observed: 4.34

Sample Cc1noc([C@@H]2C[C@H]3CN(Cc4cc(C)on4)C[C@H]3O2)n1 ; Percent Effect observed: 2.67

Sample COc1ncnc2c1CCN(c1cc(C(F)(F)F)ncn1)CC2 ; Percent Effect observed: 3.67

Sample Cc1cc(CN(C)C(=O)NC2CCS(=O)(=O)C2)no1 (centres undefined) ; Percent Effect observed: -1.18

Sample Cc1cccc(CC(=O)NCCCOC(C)C)c1 ; Percent Effect observed: -4.16

Sample CCS(=O)(=O)N1CCc2ccc(NC(=O)Nc3cccc(SC)c3)cc21 ; Percent Effect observed: -4.68

Sample COC(=O)c1ccc(N2CCN(C(=O)c3cc(C)on3)C(C)C2)cc1 (centres undefined) ; Percent Effect observed: 5.2

Sample COc1cccc(-c2noc(C3CCN(Cc4cn(C)nc4C)C3)n2)c1 (centres undefined) ; Percent Effect observed: -1.93

Sample COCC(=O)N1CCC(c2nccn2CC2CC2)CC1 ; Percent Effect observed: -0.435

Sample Cc1nn(C)cc1CN1CCC(C2Nc3ccccc3S(=O)(=O)N2)CC1 (centres undefined) ; Percent Effect observed: -0.223

Sample CNC(=O)[C@@]12CCO[C@@H]1CCN(S(=O)(=O)c1cccc(C)c1)C2 ; Percent Effect observed: -4.6

Sample CCc1nccn1C1CCCN(C(=O)c2cnn(C)c2C2CC2)C1 (centres undefined) ; Percent Effect observed: -4.23

Sample CC(C)(O)CN1CCN(C(=O)c2sccc2C2CC2)CC1 ; Percent Effect observed: 0.16

Sample COc1cc(CNCc2c(C)nn(C)c2N(C)C)ccn1 ; Percent Effect observed: 3.75

Sample Cc1nc(C)n(CC2CCCN2Cc2ccn(-c3ccccc3)n2)n1 (centres undefined) ; Percent Effect observed: 0.0463

Sample O=C(CCN1C(=O)CCC1=O)Nc1cnn(-c2ccccc2Cl)c1 ; Percent Effect observed: 2.85

Sample Cc1nc([C@@H]2C[C@@H]3CCN(C(=O)c4ccnnc4)C[C@H]3O2)sc1C ; Percent Effect observed: 4.24

* * *

system tested: Shiga toxin 2 (Escherichia coli O157:H7) (UniProt P09385+P09386)
protocol summary: E. coli 0.157:H7 Shiga Toxin SOP - stx2 screening assay
Type: functional
Parameters: scale not given: direction of the effect not stated beside the values
test context: 30 µM
# Percent Effect >= -10% gives Met, anything below gives Not met

INPUT: Hi, just wondering whether CCn1c(CN2CCC(O)(C(=O)OC)CC2)nc2c(F)cccc21 shows Percent Effect of -10% or higher.
OUTPUT: Not met

INPUT: Hi, just wondering whether CC(NC(=O)NCc1ccc(Cl)s1)c1ccccn1 (centres undefined) shows Percent Effect of -10% or higher.
OUTPUT: Not met

INPUT: Hi, just wondering whether Cc1nc(C)n(C2CCCN(C(=O)c3ccc(F)cc3F)C2)n1 (centres undefined) shows Percent Effect of -10% or higher.
OUTPUT: Met

INPUT: Hi, just wondering whether COc1ccccc1OCC(=O)NS(=O)(=O)c1ccc(C)s1 shows Percent Effect of -10% or higher.
OUTPUT: Met

INPUT: Hi, just wondering whether CN(Cc1ccc(Cl)s1)C(=O)c1cccc(OCC(N)=O)c1 shows Percent Effect of -10% or higher.
OUTPUT: Met

INPUT: Hi, just wondering whether CS(=O)(=O)CCNC(=O)C1(c2cccc(Cl)c2)CCCCC1 shows Percent Effect of -10% or higher.
OUTPUT: Not met

INPUT: Hi, just wondering whether CCc1cnc2c(c1Nc1ccc(OC)cc1)c(=O)n(C)c(=O)n2C shows Percent Effect of -10% or higher.
OUTPUT: Not met

INPUT: Hi, just wondering whether Cc1nn(C(C)C)c(C)c1NC(=O)c1ccncc1 shows Percent Effect of -10% or higher.
OUTPUT: Not met

INPUT: Hi, just wondering whether CCN1CCN(C(=O)c2ccn(C)c(=O)c2)CC1 shows Percent Effect of -10% or higher.
OUTPUT: Not met

INPUT: Hi, just wondering whether Clc1ccccc1-c1nc(CNC2CCc3ncnn3C2)cs1 (centres undefined) shows Percent Effect of -10% or higher.
OUTPUT: Met

INPUT: Hi, just wondering whether OCC1CCCN1c1cc(NCCNc2ccccn2)ncn1 (centres undefined) shows Percent Effect of -10% or higher.
OUTPUT: Not met

INPUT: Hi, just wondering whether O=C(CN1CCCCC1Cn1cncn1)NCCc1ccc(F)cc1 (centres undefined) shows Percent Effect of -10% or higher.
OUTPUT: Met

INPUT: Hi, just wondering whether Cc1cc2c(=O)n3c(nc2s1)CCN(C(=O)c1cnn(C)c1C)CC3 shows Percent Effect of -10% or higher.
OUTPUT: Met

INPUT: Hi, just wondering whether Cc1cc(C)nc(CCNC(=O)[C@H]2CNC[C@@H](C(=O)N3CCCC3)C2)n1 shows Percent Effect of -10% or higher.
OUTPUT: Not met

INPUT: Hi, just wondering whether Cc1cc(C2CCCN2Cc2cc(=O)n(C)c(=O)n2C)on1 (centres undefined) shows Percent Effect of -10% or higher.
OUTPUT: Met

INPUT: Hi, just wondering whether NC(=O)C1CN(C(=O)Nc2ccccc2SC(F)(F)F)CCO1 (centres undefined) shows Percent Effect of -10% or higher.
OUTPUT: Not met

INPUT: Hi, just wondering whether COc1ccc(-c2nc(CN3CC(n4nc(C)cc4C)C3)no2)cc1 shows Percent Effect of -10% or higher.
OUTPUT: Not met

INPUT: Hi, just wondering whether CC(=O)N1CCC(c2ccnc(Nc3cnccn3)n2)C1 (centres undefined) shows Percent Effect of -10% or higher.
OUTPUT: Not met

INPUT: Hi, just wondering whether CN(C)C(=O)CC1CC2(CCN(c3ncccn3)CC2)c2ccccc21 (centres undefined) shows Percent Effect of -10% or higher.
OUTPUT: Met

INPUT: Hi, just wondering whether O=C(CSCC1CC1)N1CCCC(c2nccn2Cc2ccncc2)C1 (centres undefined) shows Percent Effect of -10% or higher.
OUTPUT: Met

INPUT: Hi, just wondering whether O=C1CC(c2ccc(F)c(F)c2)c2snc(C(=O)O)c2N1 (centres undefined) shows Percent Effect of -10% or higher.
OUTPUT: Met

INPUT: Hi, just wondering whether CCn1cnnc1C1CCN(C(=O)c2ccc(C(=O)OC)s2)CC1 shows Percent Effect of -10% or higher.
OUTPUT: Met

INPUT: Hi, just wondering whether CC(=O)N1CCCn2nc(CNS(=O)(=O)c3cc(C)cs3)cc2C1 shows Percent Effect of -10% or higher.
OUTPUT: Met
